# pKi per entry
assayed_system: μ receptor (Cavia porcellus, UniProt A0ACM8Q262)
Construct: 3H-DAGO (DAMGO) displacement
Sequence (A0ACM8Q262 1-400): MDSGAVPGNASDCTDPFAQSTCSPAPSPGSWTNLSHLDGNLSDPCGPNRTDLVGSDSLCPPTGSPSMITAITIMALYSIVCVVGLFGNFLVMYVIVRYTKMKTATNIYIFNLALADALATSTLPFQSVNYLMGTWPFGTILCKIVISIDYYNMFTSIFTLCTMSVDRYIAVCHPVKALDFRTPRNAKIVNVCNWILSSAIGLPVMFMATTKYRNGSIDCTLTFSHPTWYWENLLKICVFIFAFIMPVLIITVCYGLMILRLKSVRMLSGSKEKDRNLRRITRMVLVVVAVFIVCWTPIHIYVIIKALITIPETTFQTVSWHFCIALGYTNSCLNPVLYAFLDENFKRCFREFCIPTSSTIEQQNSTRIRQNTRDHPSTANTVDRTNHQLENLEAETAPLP
procedure_text: Radio receptor binding to μ sites (3H-DAGO)
conditions: guinea pig brain homogenate without cerebellum, 25° C., 40 min, pH 7.4
pKi: −log10 of the molar value. Where a name gives a salt, the structure may show the parent alone.
quantity_measured: pKi

> print(dat)
                                   compound                            assayed.system  quantity.measured  result.value
1  O=C(Cc1ccc(Cl)c(Cl)c1)N1Cc2ccccc2C[C@H]1CN1CCCC1 [Example 3, hydrochloride]  μ receptor (Cavia porcellus, UniProt A0ACM8Q262)                pKi          6.12
2  O=C(Cc1ccc(Cl)c(Cl)c1)N1Cc2ccccc2C[C@@H]1CN1CCCC1 [Example 2, hydrochloride]  μ receptor (Cavia porcellus, UniProt A0ACM8Q262)                pKi          5.85
3  CN(C)CC1Cc2ccccc2CN1C(=O)Cc1ccc(Cl)c(Cl)c1 (racemic) [Example 4, hydrochloride]  μ receptor (Cavia porcellus, UniProt A0ACM8Q262)                pKi          5.87
4  CN(C)C[C@H]1Cc2ccccc2CN1C(=O)Cc1ccc(Cl)c(Cl)c1 [Example 5, hydrochloride]  μ receptor (Cavia porcellus, UniProt A0ACM8Q262)                pKi          5.59
5  O=C(Cc1ccc(Cl)c(Cl)c1)N1Cc2ccccc2CC1CN1CCCC1 (racemic) [Example 1, hydrochloride]  μ receptor (Cavia porcellus, UniProt A0ACM8Q262)                pKi          6.02
6  CN(C)C[C@@H]1Cc2ccccc2CN1C(=O)Cc1ccc(Cl)c(Cl)c1 [Example 6, hydrochloride]  μ receptor (Cavia porcellus, UniProt A0ACM8Q262)                pKi          5.97

src = patent US4753952A
